Recorded values, source ChEMBL document CHEMBL1146574.

target: 5-hydroxytryptamine receptor 2A (Rattus norvegicus) (UniProt P14842); assay: Displacement of [3H]ketanserin from rat 5HT2A receptor expressed in mouse NIH3T3 cells assessed as bound radiolabeled ligand remaining by liquid scintillation relative to control; format: cell-based
Sequence (P14842 whole entry): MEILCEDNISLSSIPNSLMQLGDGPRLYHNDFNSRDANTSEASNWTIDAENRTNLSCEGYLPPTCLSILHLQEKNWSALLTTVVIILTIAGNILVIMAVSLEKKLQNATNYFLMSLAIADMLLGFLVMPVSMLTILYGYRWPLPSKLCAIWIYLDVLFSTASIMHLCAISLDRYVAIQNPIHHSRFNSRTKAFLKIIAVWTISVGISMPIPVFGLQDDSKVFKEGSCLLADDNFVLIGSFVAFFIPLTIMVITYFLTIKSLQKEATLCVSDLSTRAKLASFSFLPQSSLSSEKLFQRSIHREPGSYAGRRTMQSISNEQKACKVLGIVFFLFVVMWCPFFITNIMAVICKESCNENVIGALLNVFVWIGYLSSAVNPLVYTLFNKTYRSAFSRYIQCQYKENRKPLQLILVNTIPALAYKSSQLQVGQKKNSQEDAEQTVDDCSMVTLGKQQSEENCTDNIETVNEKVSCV
We begin with a simple list: items and their reported Activity.
// units = %; emit number, no label

// worked examples, Activity included
[[record]]
molecule = "CC(=O)NC(Cc1ccc(OCC=C(C)C)cc1)C(=O)O (centres undefined)"
result = 85

[[record]]
molecule = "COC(=O)C(Cc1ccc(OCC=C(C)C)cc1)NC(C)=O (centres undefined)"
result = 85

[[record]]
molecule = "CC(=O)OCCc1ccc(OCC=C(C)C)cc1 [ETROGOL ACETATE]"
result = 11


Below: the item to evaluate.
Query block: Entry under review: CC(C)=CCOc1ccc(CCO)cc1 . Reported Activity?
Result block: 85

====

test system: Artemia; assay: Toxicity against brine shrimp; assay type: organism-based; settings: in vivo
VALUE KIND: Activity

Here is how some molecules turned out for Activity.
[[record]]
molecule = "CC(=O)OCCc1ccc(OCC=C(C)C)cc1 [ETROGOL ACETATE]"
value_kind = "Activity"
result = "Toxic"

[[record]]
molecule = "C[C@H]1CC[C@H]2[C@H]1C[C@H](C(C)(C)O)CC[C@@]2(C)O"
value_kind = "Activity"
result = "Non-toxic"

[[record]]
molecule = "CC(=O)NC(Cc1ccc(OCC=C(C)C)cc1)C(=O)O (stereo unspecified)"
value_kind = "Activity"
result = "Toxic"

[[record]]
molecule = "C=C(C)[C@@H]1CC[C@@](C)(O)[C@H]2CC[C@H](C)[C@@H]2C1"
value_kind = "Activity"
result = "Non-toxic"

[[record]]
molecule = "C[C@H]1CC[C@H]2[C@H]1C[C@]1([C@@H](C)CO)CC[C@]2(C)O1"
value_kind = "Activity"
result = "Non-toxic"


Shifting focus to the molecule that follows.
Query block: # input molecule: CC(C)=CCOc1ccc(CCO)cc1 ; wanted: its Activity
Result block: Toxic
